Each item that follows carries a reported inhibition at 3 µM.
Molecular target: human XIAP_BIR3 domain purified protein (Homo sapiens, UniProt P98170)
Sequence (P98170 252-356 limits assumed): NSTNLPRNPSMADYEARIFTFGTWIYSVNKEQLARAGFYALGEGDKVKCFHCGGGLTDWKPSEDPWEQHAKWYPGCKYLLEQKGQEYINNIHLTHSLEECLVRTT
Test: Human XIAP binding inhibitory activity (HTRF, b-Smac ligand)
Conditions: read-out: XIAP binding inhibitory rate (%) at 3 μM of the test compound
Structures can show the parent of a compound that is named as a salt.
Write the value in % as a bare number.

These recorded examples may help you get a feel for the data.
molecule: CN[C@@H](C)C(=O)N[C@H](C(=O)N1C[C@H]2CCCN2C[C@H]1C(=O)N[C@@H]1CCOc2cc(F)cc(F)c21)C1CCCCC1 [Example 24, dihydrochloride]
studySystem: human XIAP_BIR3 domain purified protein (Homo sapiens, UniProt P98170)
inhibition at 3 µM [%]: 97.3
--
molecule: CCO[C@@H]1C[C@@H]2CN(C(=O)[C@@H](NC(=O)[C@H](CC)NC)C3CCCCC3)[C@H](C(=O)N[C@@H]3CCOc4ccccc43)CN2C1 [Example 91]
studySystem: human XIAP_BIR3 domain purified protein (Homo sapiens, UniProt P98170)
inhibition at 3 µM [%]: 95.5
--
molecule: CCO[C@@H]1C[C@@H]2CN(C(=O)[C@@H](NC(=O)[C@H](CC)NC)C3CCC(F)(F)CC3)[C@H](C(=O)N[C@@H]3CCOc4ccccc43)CN2C1 [Example 127]
studySystem: human XIAP_BIR3 domain purified protein (Homo sapiens, UniProt P98170)
inhibition at 3 µM [%]: 98
--
molecule: CN[C@@H](C)C(=O)N[C@@H](CCCCNC(=O)CCCCCCCCC(=O)NCCCC[C@H](NC(=O)[C@H](C)NC)C(=O)N1C[C@H]2CCCN2C[C@H]1C(=O)N[C@@H]1CCCc2ccccc21)C(=O)N1C[C@H]2CCCN2C[C@H]1C(=O)N[C@@H]1CCCc2ccccc21 [Example 126]
studySystem: human XIAP_BIR3 domain purified protein (Homo sapiens, UniProt P98170)
inhibition at 3 µM [%]: 99

Turning now to a further record.
*Q* Which inhibition at 3 µM value is on record for CN[C@@H](C)C(=O)N[C@H](C(=O)N1C[C@H]2CC(F)(F)CN2C[C@H]1C(=O)N[C@@H]1CCOc2ccccc21)C1CCCCC1 [Example 50, dihydrochloride] ?
*A* 97.1

* * *

Quick reference: inhibition at 3 µM of the listed items.
Molecular target: human XIAP_BIR3 domain purified protein (Homo sapiens, UniProt P98170)
Experiment: Human XIAP binding inhibitory activity (HTRF, b-Smac ligand)
Conditions: read-out: XIAP binding inhibitory rate (%) at 3 μM of the test compound
Counter-ions that a name gives are not always drawn.
Write down the numeric answer in % and omit the unit.

Completed entries (count: 6):
compound: CN[C@@H](C)C(=O)N[C@@H](CCCNC(=O)OCc1ccccc1)C(=O)N1C[C@H]2CCCN2C[C@H]1C(=O)N[C@@H]1CCCc2ccccc21 [Example 5, dihydrochloride]
studySystem: human XIAP_BIR3 domain purified protein (Homo sapiens, UniProt P98170)
inhibition at 3 µM, %: 99.2
--
compound: CCO[C@@H]1C[C@@H]2CN(C(=O)[C@@H](NC(=O)[C@H](C)NC)C3CCCCC3)[C@H](C(=O)N[C@@H]3CCOc4ccccc43)CN2C1
studySystem: human XIAP_BIR3 domain purified protein (Homo sapiens, UniProt P98170)
inhibition at 3 µM, %: 99.6
--
compound: CN[C@@H](C)C(=O)N[C@H](C(=O)N1C[C@H]2C[C@@H](OCC3CC3)CN2C[C@H]1C(=O)N[C@@H]1CCOc2ccccc21)C1CCCCC1
studySystem: human XIAP_BIR3 domain purified protein (Homo sapiens, UniProt P98170)
inhibition at 3 µM, %: 96.6
--
compound: CN[C@@H](C)C(=O)N[C@H](C(=O)N1C[C@H]2C[C@@](C)(O)CN2C[C@H]1C(=O)N[C@@H]1CCOc2ccccc21)C1CCCCC1 [Example 41, dihydrochloride]
studySystem: human XIAP_BIR3 domain purified protein (Homo sapiens, UniProt P98170)
inhibition at 3 µM, %: 93.5
--
compound: CN[C@@H](C)C(=O)N[C@@H](CCCCNC(=O)c1ccc(C(=O)NCCCC[C@H](NC(=O)[C@H](C)NC)C(=O)N2C[C@H]3CCCN3C[C@H]2C(=O)N[C@@H]2CCCc3ccccc32)cc1)C(=O)N1C[C@H]2CCCN2C[C@H]1C(=O)N[C@@H]1CCCc2ccccc21
studySystem: human XIAP_BIR3 domain purified protein (Homo sapiens, UniProt P98170)
inhibition at 3 µM, %: 98.9
--
compound: CN[C@@H](C)C(=O)N[C@@H](CCCCNC(=O)OCc1ccccc1)C(=O)N1C[C@H]2CCCN2C[C@H]1C(=O)N[C@@H]1CCCc2ccccc21 [Example 6, dihydrochloride]
studySystem: human XIAP_BIR3 domain purified protein (Homo sapiens, UniProt P98170)
inhibition at 3 µM, %: 98.8

Okay, next one:
*Q* Quick check: inhibition at 3 µM of CN[C@@H](C)C(=O)N[C@H](C(=O)N1C[C@H]2CCCN2C[C@H]1C(=O)N[C@H]1c2ccccc2C[C@H]1O)C1CCCCC1 [Example 27, dihydrochloride] ?
*A* 97.2

Source of measurements: patent US20110034469A1
